Hey, just so you know, these numbers are from the supplement of paper PMC10949913.

What area under concentration-response curve was measured for each of the following?
- Tested on: NCI-H295R
- test_name: area under concentration-response curve (viability) (AUC (a.u.)); higher = less active
- condition_set: 48 h
Note: the reply should be a number with no unit written.

Data request: State the recorded area under concentration-response curve for this entry: `CC(=O)O[C@@]12CO[C@@H]1C[C@H](O)[C@]3(C)[C@@H]2[C@H](OC(=O)C4=CC=CC=C4)[C@]5(O)C[C@H](O)/C(=C(/[C@@H](O)C3=O)C5(C)C)C`
Data returned: 491

Data request: Another compound: `Cc1nc(NC(=O)N2CCC[C@H]2C(N)=O)sc1-c1ccnc(C(C)(C)C(F)(F)F)c1`
Data returned: 421

Data request: Another compound: `CN(C)[C@H]\1[C@@H]2[C@@H](O)[C@@H]\3C(=C)C4=C(C(=CC=C4)O)C(=O)C3=C(\O)[C@@]2(O)C(=O)\C(=C1O)C(N)=O`
Data returned: 540

Data request: Another compound: `CC(C)n1cc(-c2ccc3c(c2)N(C)CC3)c2c(N[S+](=O)([O-])c3ccn(C)n3)ccnc21`
Data returned: 568

Data request: Another compound: O=C1NC(O)CCN1[C@@H]1O[C@H](CO)[C@@H](O)[C@H]1O (some centres not stated)
Data returned: 585

Data request: Another compound: `CCC[C@H](N[C@H]1CCc2cc(F)cc(F)c2C1)C(=O)Nc1cn(C(C)(C)CNCC(C)(C)C)cn1`
Data returned: 455

Data request: Another compound: `COc1cc2c(Oc3ccc(NC(=O)C4(C(=O)Nc5ccc(F)cc5)CC4)cc3F)ccnc2cc1OCCCN1CCOCC1`
Data returned: 436

Data request: Another compound: `CN1\C(=C(\O)C2=CC=CC=C2[S+]1([O-])=O)C(=O)NC3=NC=C(C)S3`
Data returned: 511

Data request: Another compound: `CC(C)C1=C(O)C=C(O)C(=C1)C/2=N/NC(=O)N2C3=CC4=C(C=C3)[N](C)C=C4`
Data returned: 416

Data request: Another compound: O=C1OC(COc2ccccc2[N+](=O)[O-])CC1Cc1ccccc1 (configuration not stated)
Data returned: 521

Data request: Another compound: `COc1ccc(CNC(=O)Nc2ncc([N+](=O)[O-])s2)cc1`
Data returned: 410

Data request: Another compound: `CN(C)c1ccc(-c2nc3c(N4CCN(CC(=O)Nc5nccs5)CC4)c(Cl)cnc3[nH]2)cc1`
Data returned: 600

Data request: Another compound: `COc1ccc(C[C@@H](C)[C@@H](C)Cc2ccc(OC)c(OC)c2)cc1OC`
Data returned: 480

Data request: Another compound: CCCC1OC2C[C@H]3[C@@H]4CCC5=CC(=O)C=C[C@]5(C)[C@H]4C(O)C[C@]3(C)[C@]2(C(=O)CO)O1 (some centres not stated)
Data returned: 607

Data request: Another compound: `COc1ccc(-n2cnc3cc(C(=O)N4CCCCC4)ccc32)cc1`
Data returned: 479

Data request: Another compound: `COc1cc(C(=O)NC(=N)Nc2ccc(C)c(NC(=O)c3ccc(-c4ccccc4)cc3)c2)cc(OC)c1OC`
Data returned: 399

Data request: Another compound: Cc1c(N)nc([C@H](CC(N)=O)NC[C@@H](N)C(N)=O)nc1C(=O)N[C@H](C(=O)N[C@@H](C)[C@H](O)[C@@H](C)C(=O)N[C@@H](C(=O)NCCc1nc(-c2nc(C(=O)NCCC[S+](C)C)cs2)cs1)[C@@H](C)O)C(O[C@H]1O[C@H](CO)[C@H](O)[C@@H](O)[C@H]1O[C@H]1O[C@H](CO)[C@@H](O)[C@H](OC(N)=O)[C@@H]1O)c1c[nH]cn1 (some centres not stated)
Data returned: 530

Data request: Another compound: `O=C(Nc1cccc(C(F)(F)F)c1)Nc1cc([S+](=O)([O-])NC2CC2)ccc1-c1ccsc1`
Data returned: 514

Data request: Another compound: `CN1CCN(C2CCN(C(=O)Nc3cc(Oc4ccc(NC(=O)C5(C(=O)Nc6ccc(F)cc6)CC5)c(F)c4)ccn3)CC2)CC1`
Data returned: 453

Data request: Another compound: N[S+](=O)([O-])c1cc2c(cc1Cl)NC(C(Cl)Cl)N[S+]2(=O)[O-] (configuration not stated)
Data returned: 536

Data request: Another compound: `CN(C)CCCN1c2ccccc2CCc2ccc(Cl)cc21`
Data returned: 535

Data request: Another compound: COc1cccc(-c2cc(F)ccc2C2Cc3nc(N)nc(C)c3C(=O)N2)n1 (configuration not stated)
Data returned: 403

Data request: Another compound: `COc1ccc([C@@H]2CNC(=O)C2)cc1OC1CCCC1`
Data returned: 516

Data request: Another compound: `COc1ccccc1C(=O)Nc1cc2c(cc1N1CCNC[C@H]1C)n(C)c(=O)n2C`
Data returned: 550

Data request: Another compound: `COC(=O)[C@@H](N)CCCNC(=N)N[N+](=O)[O-]`
Data returned: 557

Data request: Another compound: `CCCCNc1cc(C(=O)O)cc([S+](N)(=O)[O-])c1Oc1ccccc1`
Data returned: 553

Data request: Another compound: `COc1cc(N2CCC(N3CCN(C)CC3)CC2)ccc1Nc1ncc(Cl)c(Nc2ccccc2[S+](=O)([O-])C(C)C)n1`
Data returned: 432

Data request: Another compound: `Nc1ccccc1NC(=O)c1ccc(CNC(=O)OCc2cccnc2)cc1`
Data returned: 440

Data request: Another compound: `C[C@]12CCC\3=C\4CCC(=O)\C=C4CC[C@H]3[C@@H]1CC[C@@]2(O)CC#N`
Data returned: 606

Data request: Another compound: `Cc1csc(NC(=O)c2sc3nc4c(c(C(F)(F)F)c3c2N)CCC4)n1`
Data returned: 472

Data request: Another compound: `c1cc(OCCN2CCCCC2)cc(-c2n[nH]c3ccc(-c4nc[nH]n4)cc23)c1`
Data returned: 563

Data request: Another compound: `CN[C@@H]1CN(C[C@H]1OC)C2=NC3=C(C=C2)C(=O)C(=C\N3C4=NC=CS4)/C(O)=O`
Data returned: 445
